target: T1, human wild-type, full length Gasdermin D (GSDMD 1-484), chemically biotinylated (Homo sapiens (Human)., UniProt P57764, chemically biotinylated (ChromaLink Biotin), approximately 2 biotins per molecule); experiment: SPR; Biacore 8K; chemically biotinylated full length GSDMD captured on Series S Sensor Chip CAP; nanobodies injected as analytes, multi-cycle kinetics (VHH-1, -2, -3, -5: 0.5-32 nM; VHH-4, -6: 64-4096 nM); 25 °C; 20 mM HEPES pH 8.0, 200 mM NaCl, 5 mM DTT, 0.05% Tween20; flow 30 µl/min; association 120 s, dissociation 300 s; 1:1 binding model; conditions: both partners purified
T1 construct: human Gasdermin D (GSDMD), wild type, full length, residues 1-484; also called human GSDMD wt, f.l; hGSDMD; source: E. coli Rosetta (DE3), purified (Ni-NTA, SUMO cleavage by ULP1, second Ni-NTA, SEC S200); chemically biotinylated (ChromaLink Biotin Labeling kit); not shown: His6-SUMO, N-terminal, cleaved
T1 sequence (P57764 whole entry, the tested form may be a part): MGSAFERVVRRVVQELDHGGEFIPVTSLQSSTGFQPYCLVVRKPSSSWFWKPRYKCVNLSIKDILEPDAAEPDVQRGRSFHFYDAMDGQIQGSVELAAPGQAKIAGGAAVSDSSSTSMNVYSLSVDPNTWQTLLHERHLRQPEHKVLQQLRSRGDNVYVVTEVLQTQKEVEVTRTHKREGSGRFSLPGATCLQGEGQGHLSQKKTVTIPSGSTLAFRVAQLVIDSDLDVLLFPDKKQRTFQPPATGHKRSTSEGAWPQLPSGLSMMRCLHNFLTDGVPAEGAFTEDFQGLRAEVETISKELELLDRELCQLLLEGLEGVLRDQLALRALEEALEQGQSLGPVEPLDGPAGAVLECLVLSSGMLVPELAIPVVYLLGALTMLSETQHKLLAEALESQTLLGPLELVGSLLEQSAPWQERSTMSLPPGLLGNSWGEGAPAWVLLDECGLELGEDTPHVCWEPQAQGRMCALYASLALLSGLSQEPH
As shown below, each of these binders has a reported kon value.
// return numeric value only (unit: M⁻¹ s⁻¹, not printed)

BINDER | MEASUREMENT TYPE | MEASURED VALUE
VHH_(GSDMD-2) (VHH, also called VHH-2; source: E. coli WK6, periplasmic expression (pHEN6), purified (Ni-NTA, SEC S75)) VHH: QVQLVESGGGLVQPGGSLRLSCVDSRSWINVYGANWYRQAPGKERELVAALTSGGTTNYADSVKGRFTISRDNAKNTVYLQMRDLKPEDTAVYYCNLERYTGSSVYPWGQGTQVTVSS | kon | 1.49e+06
VHH_(GSDMD-6) (VHH, also called VHH-6; source: E. coli WK6, periplasmic expression (pHEN6), purified (Ni-NTA, SEC S75)) VHH: QVQLVETGGGLVQPGGSLRLSCTASGFIFSANQMNWVRQAPGKGLEWLSGISTRGDTTSYADSVKGRFTISRDNAKNTLYLQMNSLQPDDTAVYFCARVCIRGPEPKLRCDDWGQGTQVTVSS | kon | 141000
VHH_(GSDMD-3) (VHH, also called VHH-3; source: E. coli WK6, periplasmic expression (pHEN6), purified (Ni-NTA, SEC S75)) VHH: QVQLVETGGGLVQPGGSLRLSCAASGFTLDIYNMGWFRQAPGKEREGVSCISSRYGTSTYYADSVKGRFTISRDNAKNTVYLQMNNLKPEDTAVYYCATVSWRFTTNQDVCLTPSVSGYWGQGTQVTVSS | kon | 2.8e+06
VHH_(GSDMD-1) (VHH, also called VHH-1; source: E. coli WK6, periplasmic expression (pHEN6), purified (Ni-NTA, SEC S75)) VHH: QVQLVESGGALVQPGGSLRLSCSASGFTFSKYLMSWYRQAPGKERELVATITTAGGNTNYADSVKGRFTISRDNAKNTVYLQMNSLKPEDTAVYYCKASGGTIRTVNETYWGQGTQVTVSS | kon | 6.48e+06

API: the following record is the query input.
Q. Give me measured kon, please, for this binder: VHH_(GSDMD-5) (VHH, also called VHH-5; source: E. coli WK6, periplasmic expression (pHEN6), purified (Ni-NTA, SEC S75)) VHH: QVQLVETGGGLVQPGGSLRLSCAASGFVFSINPMNWYRQAPGKERELVAYISMRGSTTNYADSVKGRFIISRDNAKNTLYLQMNSLKPEDTAVYYCNAPSRSVWGQGTQVTVSS
A. 3.02e+06

FYI, the data here is from paper PMC10692205.
